Test system: NCI-H322M lung
Assay: NCI-60 one-dose screen, 48 h (100 = growth as untreated, 0 = no growth, -100 = all killed)
Conditions: 10 µM unless noted
The panel holds about 83,000 compounds, 20% with a hit somewhere; the sample as a whole holds those more often.
ASSAY ENDPOINT: growth (%)

MOLECULE	ASSAY ENDPOINT	MEASURED
O=C(COc1ccc(NC(=O)Nc2ccc(Cl)c(Cl)c2)cc1)N=Nc1c(O)[nH]c2ccc([N+](=O)[O-])cc12	growth	85.3
O=C1C(=Nc2ccc(F)c(Cl)c2)c2cccc3cccc1c23	growth	85.2
CC(C)c1ccc2c(N)c(C(=O)Nc3cccc(C(F)(F)F)c3)sc2n1	growth	81.2
Cc1ccc(NC(=O)[C@]23CCC(C)(C)CC2C2=CCC4[C@@]5(C)C[C@@H](O)[C@H](O)[C@@](C)(CO)C5CC[C@@]4(C)[C@]2(C)CC3)cc1 (some centres undefined)	growth	69.3

====

Test system: SK-MEL-5 melanoma
Experiment: NCI-60 one-dose screen, 48 h (100 = growth as untreated, 0 = no growth, -100 = all killed)
Details: 10 µM unless noted
This is part of a sample that, as a whole, favours compounds with a hit. Of some 83,000 tested, about 20% had one in any assay.
Recorded measurements of growth, one per entry

COMPOUND	UNIT ABBREVIATION	growth
COC(OC)C1=C(C)OC(N)=C(C#N)C12C(=O)Nc1ccccc12 (centres undefined)	%	92.4
COc1cccc(COc2ccc(NC(=O)Nc3ccc(Cl)c(C(F)(F)F)c3)cc2)c1	%	-77
CC(=O)OC[C@@]1(C)C2CC[C@]3(C)C(CC=C4C5CC(C)(C)CC[C@]5(C(=O)Nc5ccc(Br)cc5)CC[C@]43C)[C@@]2(C)C[C@@H](OC(C)=O)[C@@H]1OC(C)=O (some centres undefined)	%	8.44
Clc1cccc(-c2ccc(OCCCN3CCN(c4ccncc4)CC3)cc2)c1	%	-98

====

System: NCI-H226 lung
Experiment: NCI-60 one-dose screen, 48 h (100 = growth as untreated, 0 = no growth, -100 = all killed)
Details: 10 µM unless noted
About 83,000 compounds went through this panel and 20% of them were active in at least one assay; those are over-represented in the sample as a whole.
ASSAY ENDPOINT: growth (%)

> print(dat)
                                   molecule  measured
1  COCOc1cc2oc(C(=O)N[C@@H](Cc3ccccc3)C(O)C(=O)NCc3ccccc3)c(C)c(=O)c2cc1OCOC (stereo not given in full)     -11.8
2  COC(=O)/C=C/c1cccc2c1C(=O)NC(C)(c1cc3ccccc3oc1=O)N2 (stereo not given)      63.1
3  Cc1ccccc1[C@H]1C(C(=O)c2ccc(Cl)cc2)C2(N[C@@H]1c1ccccc1)C(=O)Nc1ccc(Cl)cc12 (stereo not given in full)     -60.2
4  CSc1ccc(NC(=O)c2ccc3nnn(/C(C#N)=C/c4ccccn4)c3c2)cc1     -94.9
5  CN(C)c1ccnc(NCCCSC(c2ccccc2)(c2ccccc2)c2ccccc2)c1        53

====

System: A549/ATCC NSCLC
Assay: NCI-60 one-dose screen, 48 h
Conditions: 10 µM unless noted
The panel holds about 83,000 compounds, 20% with a hit somewhere; the sample as a whole holds those more often. The source made the active and inactive calls. Rule for the calls: active = growth percent below 10; inactive = the rest.
Outcome codes: y (active), n (inactive)

COMPOUND	CLASS LABEL
CCC(C)(C)c1ccc(OCCCCCCN2CCN(c3ccncc3)CC2)cc1	n
NS(=O)(=O)c1ccc(CCNC(=O)CSc2ccc(-c3ccc(Br)cc3)nn2)cc1	n
CCCCCCCCOc1cccc(S(=O)(=O)Nc2ccc(C)cc2C(=O)O)c1	n
S=c1c2ccccc2nc2n1CCc1c-2[nH]c2ccccc12	n
Cc1ccc(-c2nc(C#N)c(S(=O)(=O)N3CCN(S(=O)(=O)c4ccc(Cl)cc4)CC3)o2)cc1	n
COc1ccc(-c2ccc(SCC(=O)Nc3ccc(S(N)(=O)=O)cc3Br)nn2)cc1	n
C=CC(=O)Nc1ccc(C)c(Oc2ccc(Cl)cc2)c1	n
O=C(/C=C/c1cccc(OCc2ccc(F)cc2)c1)c1nc2ccccc2[nH]1	n
CCOC(=O)C1=C(N)N(c2ccccc2)C2=C(C(=O)CC(C)(C)C2)C1c1cccc(Cl)c1Cl (stereo unspecified)	n
CNS(=O)(=O)c1ccc(Nc2ccc(C(F)(F)F)cc2)c(-c2cn(C)cn2)c1	n
COc1ccc(NC(=O)[C@H](C)N)cc1C(=O)Nc1cccc(C2CC(=O)c3c(cc(OC)c(OC)c3OC)O2)c1 (stereo partly specified)	n
COc1ccc(Cc2nn(CC(=O)N/N=C/c3ccc(F)cc3)c(=O)c3c(C)noc23)cc1	n
CSc1ccc(NC(=O)c2ccc3nnn(/C(C#N)=C/c4ccccn4)c3c2)cc1	y
CCCCSc1nc(NCCc2c[nH]c3ccccc23)c(C#N)c(-c2ccc(F)cc2)n1	n
O=C1NC(=O)c2c1c1c3cc(Br)ccc3[nH]c1c1oc3ccc(F)cc3c21	n
C=C1CC[C@@H]2[C@]3(C)COC(c4ccco4)O[C@@H]3CC[C@@]2(C)[C@@H]1C/C=C1/C(=O)OCC1OC(C)=O (stereo partly specified)	n
CCN1C(=O)N(CC)C2NNC(Sc3c(C(=O)O)c4ccccc4n(C4CCCC4)c3=O)=NC21 (stereo unspecified)	n
CCCSc1nc(Nc2ccc(S(N)(=O)=O)cc2)c(C#N)c(-c2ccc(Cl)cc2)n1	n
Cc1cccc(NC(=O)[C@]23CCC(C)(C)CC2C2=CCC4[C@@]5(C)C[C@@H](O)[C@H](O)[C@@](C)(CO)C5CC[C@@]4(C)[C@]2(C)CC3)c1 (stereo partly specified)	n
CC(=O)OC[C@@]1(C)C2CC[C@]3(C)C(CC=C4C5CC(C)(C)CC[C@]5(C(=O)Nc5ccc(C)cc5)CC[C@]43C)[C@@]2(C)C[C@@H](OC(C)=O)[C@@H]1OC(C)=O (stereo partly specified)	n
O=C(Nc1ccc(C(F)(F)F)cc1)Nc1ccc2oc(=O)ccc2c1	n
CCCCn1c(O)c(N=Nc2nc(-c3cc4ccccc4oc3=O)cs2)c2cc(Br)ccc21	n
N/C(=N\c1nc2ccccc2s1)NC(=O)NCCCCCCO	n
Cc1cc(=O)oc2cc(OCCOc3ccc(/C=C/C(=O)Nc4ccccc4N)cc3)ccc12	n
COc1ccc(C(=O)/C=C/c2ccc(OCc3ccc(F)cc3)c(OC)c2)cc1OC	n
O=C(N=Nc1c(O)[nH]c2ccc([N+](=O)[O-])cc12)c1ccc2nc(-c3ccccc3)[nH]c2c1	n
O=C(O)c1cccc(-c2ccc(/C=N/NC(=O)c3[nH]c4ccc(Br)cc4c3-c3ccccc3)o2)c1	n
Cc1ccc(S(=O)(=O)c2nc(S(=O)(=O)c3ccc(C)cc3)c(N3CCN(C)CC3)s2)cc1	n
CC12CC[C@@H]3[C@]4(C)COC(c5cn[nH]c5-c5cccc(Br)c5)O[C@@H]4CC[C@@]3(C)[C@@H]1CC(C1=CCOC1=O)O2 (stereo partly specified)	n
CCCCCCCS(=O)(=O)N1CCCC(C(=O)Nc2nc3ccc(NC(=O)c4ccc(F)c(OC)c4F)cc3s2)C1 (stereo unspecified)	n
CCCCSc1nc(Nc2ccc(S(N)(=O)=O)cc2)c(C#N)c(-c2ccc(Cl)cc2)n1	y
COc1ccc(C(=O)/C=C/c2ccc3ccccc3c2)cc1S(N)(=O)=O	y
CC1(C)CC[C@]2(C(=O)O)CC[C@]3(C)C(=CCC4[C@@]5(C)C[C@@H](O)[C@@H]6OC(c7ccccc7F)OC[C@@]6(C)C5CC[C@]43C)C2C1 (stereo partly specified)	n
COc1ccc(-c2c(Nn3cnnn3)no[n+]2[O-])cc1	n
O=C(NNc1nc2cc(F)ccc2n2c(CN3CC4CNCC4C3)ccc12)c1ccncn1 (stereo unspecified)	n
CCCCCCCCc1ccc(C(=O)Nc2cccc(P(=O)(O)O)c2)cc1	n

// provenance: PubChem BioAssay (NCI)
